All figures here come from the supplement of paper PMC6757056.

B1: library; a variant is named by its letters at N, in order (parent)
chain: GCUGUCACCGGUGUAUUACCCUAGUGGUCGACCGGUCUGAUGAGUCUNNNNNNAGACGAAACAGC

variants of: B1; assay: FACS-Seq fitted mean relative fluorescence mCherry/BFP with ligand (log10 relative fluorescence); ligand: hypoxanthine (xanthine aptamer); ligand concentration (+) FACS-Seq: 5 mM; higher = higher reporter protein expression; details: HEK293T, ligand present: yes
Readout Kind: FACS-Seq fitted mean (log10)
Lab note: jot the number down without any unit.

Let me know recorded FACS-Seq fitted mean (log10) for `CCAUAC` , thanks.
0.283

Let me know recorded FACS-Seq fitted mean (log10) for `CCUCGA` , thanks.
0.314

Let me know recorded FACS-Seq fitted mean (log10) for `ACGCUG` , thanks.
0.566

Let me know recorded FACS-Seq fitted mean (log10) for `UAACGA` , thanks.
0.324

Let me know recorded FACS-Seq fitted mean (log10) for `CCUAUA` , thanks.
0.508

Let me know recorded FACS-Seq fitted mean (log10) for `AAUCCU` , thanks.
0.433

Let me know recorded FACS-Seq fitted mean (log10) for `CUAUUC` , thanks.
0.762

Let me know recorded FACS-Seq fitted mean (log10) for `UAAGGU` , thanks.
0.602

Let me know recorded FACS-Seq fitted mean (log10) for `CCAAGC` , thanks.
0.366

Let me know recorded FACS-Seq fitted mean (log10) for `GUAGAG` , thanks.
0.627

Let me know recorded FACS-Seq fitted mean (log10) for `GUGGGU` , thanks.
0.626

Let me know recorded FACS-Seq fitted mean (log10) for `GACCUG` , thanks.
0.608

Let me know recorded FACS-Seq fitted mean (log10) for `CAAUUA` , thanks.
0.753

Let me know recorded FACS-Seq fitted mean (log10) for `AAUUGG` , thanks.
0.658

Let me know recorded FACS-Seq fitted mean (log10) for `GUGGAA` , thanks.
-0.0768

Let me know recorded FACS-Seq fitted mean (log10) for `GAACGA` , thanks.
0.454

Let me know recorded FACS-Seq fitted mean (log10) for `GAGCAG` , thanks.
0.505

Let me know recorded FACS-Seq fitted mean (log10) for `AUAAGC` , thanks.
0.661

Let me know recorded FACS-Seq fitted mean (log10) for `GUCCGG` , thanks.
0.524

Let me know recorded FACS-Seq fitted mean (log10) for `UCAUUU` , thanks.
0.769

Let me know recorded FACS-Seq fitted mean (log10) for `UAGAGG` , thanks.
0.552

Let me know recorded FACS-Seq fitted mean (log10) for `GUUGGG` , thanks.
0.635

Let me know recorded FACS-Seq fitted mean (log10) for `CAUUGA` , thanks.
0.32

Let me know recorded FACS-Seq fitted mean (log10) for `UGUCGG` , thanks.
0.151

Let me know recorded FACS-Seq fitted mean (log10) for `AGGACC` , thanks.
0.565

Let me know recorded FACS-Seq fitted mean (log10) for `CAGCAU` , thanks.
0.642

Let me know recorded FACS-Seq fitted mean (log10) for `GGCAAU` , thanks.
-0.0445

Let me know recorded FACS-Seq fitted mean (log10) for `UCAAAA` , thanks.
0.446

Let me know recorded FACS-Seq fitted mean (log10) for `GGAGAG` , thanks.
0.507

Let me know recorded FACS-Seq fitted mean (log10) for `UUCAAG` , thanks.
0.545

Let me know recorded FACS-Seq fitted mean (log10) for `ACUGUG` , thanks.
0.0877

Let me know recorded FACS-Seq fitted mean (log10) for `CGGAAG` , thanks.
0.361

Let me know recorded FACS-Seq fitted mean (log10) for `GGGGGU` , thanks.
0.316

Let me know recorded FACS-Seq fitted mean (log10) for `AGCCAA` , thanks.
0.566

Let me know recorded FACS-Seq fitted mean (log10) for `GCUUAA` , thanks.
0.508
